# protocol.summary: qHTS to identify inhibitors of the type 1 interferon - major histocompatibility complex class I in skeletal muscle: primary screen against the NCATS Pharmaceutical Collection (AID 1347407);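 further: luminescence of HiBiT knocked into endogenous HLA-B as interferon-induced MHC class I level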
# experimental.conditions: human skeletal muscle cells, IFN-b-induced MHC-I HiBiT luminescence, 24 h; series mostly up to 45.9 µM
Records with an inconclusive call do not appear. Calls of active or inactive are those of the source. The call rests on the fitted dose curve; in most records, active means well fitted inhibition curve with a large enough effect; inconclusive means small, poorly fitted or top-dose-only effect; inactive means flat fitted curve, though single readings scatter.
Labels: true for active, false for inactive

{"compound": "N[C@@H]1C[C@H]1c1ccccc1", "group.label": "false"}
{"compound": "CC(=O)Nc1cc([As](=O)(O)O)ccc1O", "group.label": "false"}
{"compound": "Cc1ncc(CNC(=O)N(CCCl)N=O)c(N)n1", "group.label": "false"}
{"compound": "c1ccc2c(c1)OCC(C1=NCCN1)O2 (stereo not given)", "group.label": "false"}
{"compound": "CCN(CC)CCOC(=O)C(O)(c1ccccc1)c1ccccc1", "group.label": "false"}
{"compound": "C[C@H]1O[C@@H](O[C@H]2[C@@H](O)C[C@H](O[C@H]3[C@@H](O)C[C@H](O[C@H]4CC[C@@]5(C)[C@H](CC[C@@H]6[C@@H]5CC[C@]5(C)[C@@H](C7=CC(=O)OC7)CC[C@]65O)C4)O[C@@H]3C)O[C@@H]2C)C[C@H](O)[C@@H]1O", "group.label": "true"}
{"compound": "COc1ccc(C(CN(C)C)C2(O)CCCCC2)cc1 (stereo not given)", "group.label": "false"}
{"compound": "Cc1ccc(-c2nc3ccc(C)cn3c2CC(=O)N(C)C)cc1", "group.label": "false"}
{"compound": "CCC(COC(=O)c1cc(OC)c(OC)c(OC)c1)(c1ccccc1)N(C)C (stereo not given)", "group.label": "false"}
{"compound": "O=c1[nH]c2ccccc2n1CCCN1CCC(n2c(=O)[nH]c3cc(Cl)ccc32)CC1", "group.label": "false"}
{"compound": "Cn1c(CCCC(=O)O)nc2cc(N(CCCl)CCCl)ccc21", "group.label": "false"}
{"compound": "C#CCN(C)[C@H](C)Cc1ccccc1", "group.label": "false"}
{"compound": "O=C(NC(O)C(Cl)(Cl)Cl)NC(O)C(Cl)(Cl)Cl (stereo not given)", "group.label": "false"}
{"compound": "CNCC(O)c1ccc(O)cc1 (stereo not given)", "group.label": "false"}
{"compound": "CC[C@@H](CO)NC(=O)[C@@H]1C=C2c3cccc4c3c(cn4C)C[C@H]2N(C)C1", "group.label": "false"}

====

# protocol.summary: Quantitative High-Throughput drug screen in 47 multiple myeloma cell lines against the NCATS MIPE library collection: OPM2_DSMZ cell viability assay (AID 1919872); further: nearly all actives have a fitted effect of over 30% in size
# experimental.conditions: OPM2 myeloma viability, CellTiter-Glo ATP luminescence, 48 h; series mostly up to 45.8 µM
Inconclusive results are not listed. Activity calls are given as the source filed them. The call rests on the fitted dose curve; in most records, active means well fitted cell-killing curve with a large enough effect; inconclusive means small, poorly fitted or top-dose-only effect, or effect the other way; inactive means no such curve, though single readings can be large or run the other way.
Outcomes: active, inactive

{"compound": "CC1=C2C[C@@H]3[C@@H](CC=C4C[C@@H](O)CC[C@@]43C)[C@@H]2CC[C@]12O[C@H]1C[C@H](C)CN[C@H]1[C@H]2C", "group.label": "inactive"}
{"compound": "O=C(O)C(=O)c1cn(Cc2ccccc2)c2ccc(-c3ccc(OC(F)(F)F)cc3)cc12", "group.label": "inactive"}
{"compound": "C=C(C)[C@H]1Cc2c(ccc3c2O[C@@H]2COc4cc(OC)c(OC)cc4[C@@H]2C3=O)O1", "group.label": "active"}
{"compound": "C#CCN(C)[C@H](C)Cc1ccccc1", "group.label": "inactive"}
{"compound": "Fc1ccc(C(OCCN2CCN(CCCc3ccccc3)CC2)c2ccc(F)cc2)cc1", "group.label": "active"}
{"compound": "COc1ccc(C(CN(C)C)C2(O)CCCCC2)cc1 (centres undefined)", "group.label": "inactive"}
{"compound": "CCCC(C)(COC(N)=O)COC(=O)NC(C)C (centres undefined)", "group.label": "inactive"}
{"compound": "COc1ccc(C(=O)c2c(C)n(CCN3CCOCC3)c3ccccc23)cc1", "group.label": "inactive"}
{"compound": "Cc1cc(SCc2sc(-c3ccc(C(F)(F)F)c(F)c3)nc2C)ccc1OCC(=O)O", "group.label": "inactive"}

Where do these numbers come from? They come from PubChem BioAssay (NCATS).
